Below, each entry is listed alongside its reported pIC50.
system-tested: Wee1 kinase domain (Homo sapiens)
Construct: Wee1 kinase domain was purchased from Carna (catalog #05-177); purchased Carna 05-177
test: Wee1 Kinase Biochemical Assay (ADP-Glo)
settings: Wee1 kinase domain, 15 uM ATP, ADP-Glo
pIC50: −log10 of the molar value.

See these solved cases before continuing.
compound: CC1(C)C[C@H]2N(c3cccc(N=S(C)(C)=O)n3)c3nc(Nc4ncccc4F)ncc3[C@@]2(C)CO1 (single isomer, unassigned) [Example 368]
system-tested: Wee1 kinase domain (Homo sapiens)
pIC50: 7.00 to 8.00
//
compound: CN1CC[C@H](Oc2ccc(Nc3ncc4c(n3)N(c3cccc(N=S(C)(C)=O)n3)[C@H]3CC(C)(C)OC[C@@]43C)cc2)C1 (single isomer, unassigned) [Example 158]
system-tested: Wee1 kinase domain (Homo sapiens)
pIC50: 6.00 to 7.00
//
compound: C[C@H]1COC(=O)N1c1cccc(N2c3nc(Nc4ccc([C@@H]5CCNC5)cc4)ncc3[C@@]3(C)COC(C)(C)C[C@@H]23)n1 (single isomer, unassigned) [Example 275]
system-tested: Wee1 kinase domain (Homo sapiens)
pIC50: > 8.00

Entry CN1CCC(c2ncc(Nc3ncc4c(n3)N(c3cccc(N=S(C)(C)=O)n3)[C@@H]3CC(C)(C)OC[C@]43C)s2)CC1 (single isomer, unassigned) [Example 221] , tested on Wee1 kinase domain (Homo sapiens), has a reported pIC50 of > 8.00

Reading of pIC50 for CN1CCC[C@@H]1c1ccc(Nc2ncc3c(n2)N(c2cccc(N=S(C)(C)=O)n2)[C@@H]2CC(C)(C)OC[C@]32C)cn1 (single isomer, unassigned) [Example 210] with Wee1 kinase domain (Homo sapiens): > 8.00

* * *

system-tested: Wee1 kinase domain (Homo sapiens)
Construct: Wee1 kinase domain was purchased from Carna (catalog #05-177); purchased Carna 05-177
test: Wee1 Kinase Biochemical Assay (ADP-Glo)
settings: Wee1 kinase domain, 15 uM ATP, ADP-Glo
pIC50: −log10 of the molar value.
Let's look at some compounds and their measured pIC50.

Please review the entries below; each comes with its answer.
compound: C[C@H]1COC(=O)N1c1cccc(N2c3nc(Nc4ccc(N5C[C@H]6C[C@@H](C5)N6C)cc4)ncc3[C@]3(C)COC(C)(C)C[C@H]23)n1 (single isomer, unassigned) [Example 353]
pIC50: 7.00 to 8.00

compound: CN1CC(c2ccc(Nc3ncc4c(n3)N(c3cccc(N=S(C)(C)=O)n3)[C@@H]3CC(C)(C)OC[C@]43C)cc2F)C1 (single isomer, unassigned) [Example 184]
pIC50: > 8.00

compound: C[C@H]1COC(=O)N1c1cccc(N2c3nc(Nc4ccc([C@H]5CCNC5)cc4)ncc3[C@@]3(C)COC(C)(C)C[C@@H]23)n1 (single isomer, unassigned) [Example 279]
pIC50: > 8.00

compound: C[C@H]1COC(=O)N1c1cccc(N2c3nc(Nc4ccc(OC5CCN(C)CC5)nc4)ncc3[C@@]3(C)COC(C)(C)C[C@@H]23)n1 (single isomer, unassigned) [Example 335]
pIC50: > 8.00

Please find the next compound below.
GET /value?item= CN1CCC(c2ccc(Nc3ncc4c(n3)N(c3cccc(N=S(C)(C)=O)n3)[C@@H]3CC(C)(C)OC[C@]43C)cn2)CC1 (single isomer, unassigned) [Example 140] &field=pIC50 returns > 8.00

* * *

system-tested: Wee1 kinase domain (Homo sapiens)
Construct: Wee1 kinase domain was purchased from Carna (catalog #05-177); purchased Carna 05-177
test: Wee1 Kinase Biochemical Assay (ADP-Glo)
settings: class symbols; 1 nM Wee1 enzyme, 15 uM ATP, 4 hours at 25° C.
pIC50: −log10 of the molar value.
attribute-measured: pIC50

molecule: C[C@H]1CCC(=O)N1c1cccc(N2c3nc(Nc4ccc(N5CC6(CN(C)C6)C5)cc4)ncc3[C@@]3(C)COC(C)(C)C[C@@H]23)n1 (single isomer, unassigned)
system-tested: Wee1 kinase domain (Homo sapiens)
pIC50: > 8.00
--
molecule: CC1(C)C[C@@H]2N(c3cccc(N4CCOC4=O)n3)c3nc(Nc4ccc([C@@H]5CNCC5(F)F)cc4)ncc3[C@]2(C)CO1
system-tested: Wee1 kinase domain (Homo sapiens)
pIC50: 7.00 to 8.00
--
molecule: CC[C@@]1(O)CCc2ccc(N3c4nc(Nc5ccc(N6C[C@@H]7C[C@H]6CN7C)cc5)ncc4[C@@]4(C)COC(C)(C)C[C@@H]34)nc21
system-tested: Wee1 kinase domain (Homo sapiens)
pIC50: > 8.00
--
molecule: C[C@H]1CN(c2cccc(N3c4nc(Nc5ccc(N6CCN(C)CC6)cc5)ncc4[C@@]4(C)COC(C)(C)C[C@@H]34)n2)C(=O)O1 (single isomer, unassigned)
system-tested: Wee1 kinase domain (Homo sapiens)
pIC50: > 8.00

Please find the next molecule below.
Entry under test: CC1(C)C[C@H]2N(c3cccc(N=S(C)(C)=O)n3)c3nc(Nc4ccc(N5CC6(COC6)C5)cc4)ncc3[C@@]2(C)CO1 (single isomer, unassigned) . Its pIC50 was > 8.00

* * *

IC50 by entry:
system-tested: Wee1 kinase domain (Homo sapiens, UniProt P30291)
Construct: Wee1 kinase domain was purchased from Carna (catalog #05-177); purchased Carna 05-177
Sequence (P30291 299-569 limits assumed): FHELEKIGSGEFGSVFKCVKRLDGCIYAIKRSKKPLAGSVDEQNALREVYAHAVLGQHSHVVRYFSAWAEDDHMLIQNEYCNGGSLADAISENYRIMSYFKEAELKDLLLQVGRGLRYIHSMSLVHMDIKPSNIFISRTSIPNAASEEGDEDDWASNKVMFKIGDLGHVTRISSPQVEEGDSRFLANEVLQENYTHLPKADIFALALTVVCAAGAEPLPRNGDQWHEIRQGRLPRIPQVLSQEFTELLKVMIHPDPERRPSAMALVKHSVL
test: Wee1 Kinase Biochemical Assay (ADP-Glo)
settings: class symbols; 1 nM Wee1 enzyme, 15 uM ATP, 4 hours at 25° C.

// known answers, use as guide
compound: CNCc1cccc(N2c3nc(Nc4ccn(C)c(=O)c4)ncc3[C@]3(C)COC(C)(C)C[C@H]23)n1 (single isomer, unassigned) [Example 455]
IC50: ≥ 1 µM
--
compound: CNCc1cccc(N2c3nc(NC(=O)[C@H]4C[C@@H]4c4cnn(C)c4)ncc3[C@@]3(C)COC(C)(C)C[C@@H]23)n1 [Example 763]
IC50: 0.01 to 0.1 µM
--
compound: CNCc1cccc(N2c3nc(Nc4ccc(N5CCN(C)CC5)c(C)c4)ncc3[C@]3(C)COC(C)(C)C[C@H]23)n1 (single isomer, unassigned) [Example 447]
IC50: 0.1 to 1 µM

IC50 recorded for this compound, CN1CC[C@H](Oc2ccc(Nc3ncc4c(n3)N(c3cccc(N5CCOC5=O)n3)[C@@H]3CC(C)(C)OC[C@]43C)cc2)C1 [Example 615] , is < 0.01 µM

# IC50 (compound: CCn1cc(Nc2ncc3c(n2)N(c2cccc(N=S(C)(C)=O)n2)[C@@H]2CC(C)(C)OC[C@]32C)nn1 (single isomer, unassigned) [Example 516] ) is < 0.01 µM

compound CN1C[C@@H]2C[C@H]1CN2c1ccc(Nc2ncc3c(n2)N(c2cccc(C(C)(C)O)n2)[C@@H]2CC(C)(C)OC[C@]32C)cc1 (single isomer, unassigned) [Example 416] , IC50 observed: < 0.01 µM

* * *

system-tested: Wee1 kinase domain (Homo sapiens, UniProt P30291)
Construct: Wee1 kinase domain was purchased from Carna (catalog #05-177); purchased Carna 05-177
test: Wee1 Kinase Biochemical Assay (ADP-Glo)
settings: Wee1 kinase domain, 15 uM ATP, ADP-Glo
attribute-measured: IC50

Noted for CN1CCc2ccc(Nc3ncc4c(n3)N(c3cccc(N=S(C)(C)=O)n3)[C@@H]3CC(C)(C)OC[C@]43C)cc2C1 (single isomer, unassigned) : its IC50 reads < 10 nM

// field: IC50; key: C[C@H]1COC(=O)N1c1cccc(N2c3nc(Nc4ccc(N5CCN(C)CC5=O)cc4)ncc3[C@@]3(C)COC(C)(C)C[C@@H]23)n1 (single isomer, unassigned) ; value = < 10 nM

Briefly, IC50 measured for CC1(C)C[C@H]2N(c3cccc(N=S(C)(C)=O)n3)c3nc(Nc4ccc(O[C@H]5CCNC5)cc4)ncc3[C@@]2(C)CO1 (single isomer, unassigned) : < 10 nM

* * *

system-tested: Wee1 kinase domain (Homo sapiens, UniProt P30291)
Construct: Wee1 kinase domain was purchased from Carna (catalog #05-177); purchased Carna 05-177
test: Wee1 Kinase Biochemical Assay (ADP-Glo)
settings: Wee1 kinase domain, 15 uM ATP, ADP-Glo
pIC50: −log10 of the molar value.
Listed next: entries and their corresponding pIC50.

Known results for compounds:
compound: C[C@H]1COC(=O)N1c1cccc(N2c3nc(Nc4ccc([C@H]5CCNC5)cc4)ncc3[C@]3(C)COC(C)(C)C[C@H]23)n1 (single isomer, unassigned)
reported-measurement: 7.00 to 8.00
//
compound: CC1(C)C[C@H]2N(c3cccc(N=S(C)(C)=O)n3)c3nc(Nc4ccc([C@]5(C)CCNC5)cc4)ncc3[C@@]2(C)CO1 (single isomer, unassigned)
reported-measurement: > 8.00
//
compound: C[C@H]1COC(=O)N1c1cccc(N2c3nc(Nc4ccc(N5CCN(C)CC5)cc4)ncc3[C@@]3(C)COC(C)(C)C[C@@H]23)n1 (single isomer, unassigned)
reported-measurement: 7.00 to 8.00
//
compound: C[C@H]1COC(=O)N1c1cccc(N2c3nc(Nc4ccc(C5CNC5)cc4)ncc3[C@]3(C)COC(C)(C)C[C@H]23)n1 (single isomer, unassigned)
reported-measurement: 7.00 to 8.00
//
compound: CN1CC[C@@H](Oc2ccc(Nc3ncc4c(n3)N(c3cccc(N=S(C)(C)=O)n3)[C@@H]3CC(C)(C)OC[C@]43C)cc2)C1 (single isomer, unassigned)
reported-measurement: > 8.00

The record that follows has no pIC50 shown yet.
The reported Wee1 kinase domain (Homo sapiens, UniProt P30291) pIC50 of CN1CCN(c2ccc(Nc3ncc4c(n3)N(c3cccc(C(C)(C)O)n3)[C@@H]3CC(C)(C)OC[C@]43C)cc2)CC1 (single isomer, unassigned) is > 8.00

The values you see were collected from patent US20260166039A1.
